// values below are reported melting point

Consider the reported melting point for these compounds:
Smiles Str	Value
COc1cc(O)ccc1/C=C/C(=O)c1ccc(OCc2nnc(Nc3ccc(C(F)(F)F)cc3)o2)cc1	180.5 to 181.4 °C
COc1cc(O)ccc1/C=C/C(=O)c1ccc(OCc2nnc(Nc3cccc(C)c3)o2)cc1	187.6 to 190.8 °C
CCOc1ccc(Nc2nnc(COc3ccc(C(=O)/C=C/c4ccc(O)cc4OC)cc3)o2)cc1	200.1 to 200.4 °C
COc1cc(O)ccc1/C=C/C(=O)c1ccc(OCc2nnc(Nc3ccccc3F)o2)cc1	186.2 to 187.4 °C

// next entry
### Prompt GET /values?readout=melting point&item= COc1cc(O)ccc1/C=C/C(=O)c1ccc(OCc2nnc(Nc3ccc(F)cc3F)o2)cc1
### Response 223.4 to 223.9 °C

###

// values below are reported IC50
# Test system: KU812
# Protocol Summary: CCK8 antiproliferative assay, KU812
# Type: cell-based
# Study Conditions: Homo sapiens, CCK8, 48 h, mean ± SD, n = 3

Consider the reported IC50 for these compounds:
Smiles Str	Assay Readout	Value
COc1cc(O)ccc1/C=C/C(=O)c1ccc(OCc2nnc(Nc3ccccc3C)o2)cc1	IC50	> 30 µM
CCOc1ccccc1Nc1nnc(COc2ccc(C(=O)/C=C/c3ccc(O)cc3OC)cc2)o1	IC50	> 30 µM
COc1cc(O)ccc1/C=C/C(=O)c1ccc(OCc2nnc(Nc3c(F)cccc3F)o2)cc1	IC50	> 30 µM

### Prompt GET /values?readout=IC50&item= COc1cc(O)ccc1/C=C/C(=O)c1ccc(OCc2nnc(Nc3c(Cl)cccc3Cl)o2)cc1
### Response > 30 µM

This collection of values is drawn from paper PMC10889159.
